# TARGET_OF_ASSAY: Voltage-gated potassium channel subunit beta-2 (Rattus norvegicus)
# ASSAY_REMARKS: enhancers of rat Kvbeta2 NADPH turnover – biochemical, NADPH fluorescence, primary screen (AID 623);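 further: fluorescence intensity change per second fitted from 20 to 320 s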
# EXPERIMENTAL_CONDITIONS: Recombinant KvBeta, NADPH fluorescence decrease slope, 10 min; at 10 µM; active compounds read low
MEASUREMENT_TYPE: NADPH fluorescence slope
Hey, just send me the number, nothing else.

Observe how each entry below is paired with its result.
{"columns": ["COMPOUND", "MEASUREMENT_TYPE", "MEASURED_RESULT"],
 "data": [
  ["Cc1ccc(-n2ncc3c(=O)n(CC(=O)N4CCCc5ccccc54)cnc32)cc1C", "NADPH fluorescence slope", "-6.2e-05"],
  ["O=C(Cn1nc(Cc2ccncc2)c2ccccc2c1=O)N1CCN(C(=O)c2ccco2)CC1", "NADPH fluorescence slope", "-2.7e-05"],
  ["CC(C)COC(=O)C1C2C=CC3(CN(C(C)c4ccc(Br)cc4)C(=O)C13)O2 (configuration not stated)", "NADPH fluorescence slope", "-3.6e-05"],
  ["CCc1c(C)nc2ncnn2c1N1CCC(C(=O)NCc2cccc(OC)c2)CC1", "NADPH fluorescence slope", "-4.5e-05"],
  ["O=[n+]1c2c(n([O-])c3c1CCCC3)CCCC2", "NADPH fluorescence slope", "-6.5e-05"]
]}

Request: Entry CCCN(CCC)C(=O)c1c(C)[nH]c(C(=O)OCC)c1C : reported NADPH fluorescence slope = ?
Response: -2.3e-05

Request: Try this compound next: CSc1nc2ccccc2c(=O)n1N
Response: -1.3e-05

* * *

# ASSAY_REMARKS: reduction of polyQ htt aggregates in cells – imaging, exon1htt(103Q)mCFP cells, high-content imaging, primary screen (AID 483);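 further: compound exposure lasted 3 days before fixation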
# EXPERIMENTAL_CONDITIONS: exon1htt(103Q)mCFP cell line, aggregate imaging, at 2 µM; active compounds read high
Each entry below lists one item and its recorded inhibition of aggregation value.
Write the value in % as a bare number.

{"columns": ["COMPOUND", "MEASURE_UNIT", "inhibition of aggregation"],
 "data": [
  ["Cc1nc2ccc(S(=O)(=O)NC(C(=O)NCc3cccs3)C(C)C)cc2s1 (stereo not given)", "%", 24.4],
  ["COC(=O)COc1cccc(NC(=O)COc2ccccc2)c1", "%", -0.4],
  ["Cc1cc(C(=O)NCCN2CCCCC2C)n(-c2ccccc2)n1 (stereo not given)", "%", 11.3],
  ["FC(F)Oc1ccc(-c2csc(Cc3nnc4n3CCCCC4)n2)cc1", "%", -9],
  ["O=C(Nc1ccccc1-c1ccccc1)NC1CCN(CC(=O)N2CCOCC2)CC1", "%", -5]
]}

Request: Entry O=C(Nc1ccc(Br)c2cccnc12)c1ccc(Cn2cc(Cl)cn2)o1 : reported inhibition of aggregation = ?
Response: 10.4

Request: Try this compound next: O=S(=O)(c1ccc(F)c(Cl)c1)N1CCCC1
Response: 8.7

Request: Try this compound next: COCCCn1nnnc1SCC(=O)Nc1nc(C)c(C)s1
Response: 14.2

Request: Try this compound next: N/C(=N/O)c1nc(N2CCCCC2)nc(N2CCCCC2)n1
Response: -135

Request: Try this compound next: O=C(NC(C(=O)c1ccccc1)N1CCOCC1)c1cccs1 (stereo not given)
Response: 19.4

Request: Try this compound next: CCOC(=O)c1ccc(NS(=O)(=O)c2ccc3c(c2)CCCN3C(C)=O)cc1
Response: 9.2

Request: Try this compound next: Cc1nc2ncnn2c(C)c1CCC(=O)NCCCN1CCN(c2cccc(Cl)c2)CC1
Response: -0.5

Request: Try this compound next: O=C(c1c(Cl)nc2sccn12)N(C(=O)c1c(Cl)nc2sccn12)c1ccc(Cl)cn1
Response: -20.1

Request: Try this compound next: CCSc1nnc(NC(=O)c2csc(C)c2)s1
Response: 12.8

* * *

# ASSAY_REMARKS: endothelial E-selectin expression blockers – imaging, HUVEC, immunofluorescence, MLSMR starter and 10KST1 sets, primary screen (AID 487);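 further: signal is fraction of cell area covered by stained E-selectin grains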
# EXPERIMENTAL_CONDITIONS: HUVEC TNFalpha-induced E-selectin immunofluorescence imaging, at 2 µM; active compounds read high
Activity calls are given as the source filed them.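 How the source made its calls: active means visually confirmed hit in the image check and inhibition above 20%; inconclusive means visually confirmed hit but inhibition not above 20%; inactive means no visual hit in the image check.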
MEASUREMENT_TYPE: inhibition

Request: Entry CC(NC(=O)C1CC1)C(c1cccs1)N1CCN(c2ccccc2)CC1 (configuration not stated) : reported inhibition = ?
Response: -17.3% (inactive)

Request: Try this molecule next: Cn1c(=O)c(=O)n(C)c2cc(S(=O)(=O)N3CCN(c4cccc(C(F)(F)F)c4)CC3)ccc21
Response: -12.6% (inactive)

Request: Try this molecule next: COc1cc(C(=O)Nc2cccc(-c3nc4cc(C)ccc4o3)c2)cc(OC)c1OC
Response: -126% (inactive)

Request: Try this molecule next: O=c1c(-c2ccccc2)coc2c(CN3CCOCC3)c(O)ccc12
Response: -116% (inactive)

Request: Try this molecule next: COC(=O)C1=C(CSCc2ccco2)NC(=O)NC1c1cc(C)ccc1C (configuration not stated)
Response: -20.5% (inactive)

Request: Try this molecule next: Cc1c(C(=O)N2CCOCC2)oc2ccc(S(=O)(=O)N3CCCC3)cc12
Response: -31.7% (inactive)

Request: Try this molecule next: O=C(O)C1CCCN1S(=O)(=O)c1ccc2ccccc2c1 (configuration not stated)
Response: -83.6% (inactive)

Request: Try this molecule next: COc1ccccc1NC(=O)c1ccc(COc2ccccc2OC)o1
Response: -77.6% (inactive)

Request: Try this molecule next: O=c1[nH]c(N2CCCCC2)nc2c1CCCC2
Response: 9.4% (inactive)

Request: Try this molecule next: O=c1cc(CSc2ccccn2)c2ccccc2[nH]1
Response: -59.6% (inactive)

Request: Try this molecule next: O=C(Nc1ncc2c(n1)CC(c1ccccc1)CC2=O)c1ccco1 (configuration not stated)
Response: -3.8% (inactive)

Request: Try this molecule next: CCOc1cc(NC(=O)c2ccco2)c(OCC)cc1NC(=O)Cc1cccc(OC)c1
Response: 22.4% (inactive)

Request: Try this molecule next: CCc1ccc(NC(=O)C2CC(=O)N(C(C)C)C2)cc1 (configuration not stated)
Response: -6.6% (inactive)

Request: Try this molecule next: CCOc1ccccc1OCCCCN1CCCC1
Response: -99% (inactive)

Request: Try this molecule next: Cc1noc(/C=C/N(C)C)c1S(=O)(=O)N1CCc2ccccc21
Response: -60.7% (inactive)

* * *

# ASSAY_REMARKS: TLR3 IRF3 reporter activation blockers – cell-based, poly I:C stimulus, luciferase, 10K MLSCN set, primary screen (AID 602277)
# EXPERIMENTAL_CONDITIONS: HEK293-TLR3 RL24 IRF3 luciferase reporter, at 10 µM, active compounds read high
MEASUREMENT_TYPE: inhibition (%)
Write the value in % as a bare number.

Observe how each entry below is paired with its result.
{"columns": ["COMPOUND", "MEASUREMENT_TYPE", "MEASURE_UNIT", "MEASURED_RESULT"],
 "data": [
  ["COc1cccc(C(=O)NCc2nnc(SCC(=O)Nc3nccs3)n2-c2ccccc2)c1", "inhibition", "%", 35.1],
  ["O=C1NC(Cc2c[nH]c3ccccc23)C(=O)N1CCOc1ccccc1 (centres undefined)", "inhibition", "%", 19.7],
  ["Cc1nc2scc(-c3ccco3)c2c(=O)n1/N=C/N(C)C", "inhibition", "%", 3.07]
]}

Request: Entry CC(=O)Nc1ccc(S(=O)(=O)NCc2csc(-c3cccnc3)n2)cc1 : reported inhibition = ?
Response: 22.2

Request: Try this compound next: CN(C)CCNC(=O)c1ccc(COCC(F)(F)F)cc1
Response: 9.51

Request: Try this compound next: O=C(Cn1nnc(-c2cc(Cl)ccc2-n2cnnn2)n1)N1CCCc2ccccc21
Response: 23.2

* * *

# ASSAY_REMARKS: blockers of RIG-like receptor reporter activation – cell-based, Sendai virus stimulus, luciferase, 10K MLSCN set, TLR/RLR signaling modifier project, primary screen (AID 602276);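 further: firefly luciferase from ISG56 promoter only with Renilla not read in this screen; 0% = Sendai virus plus DMSO and 100% = medium plus DMSO without virus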
# EXPERIMENTAL_CONDITIONS: HEK293 RL24 IRF3 luciferase reporter, at 10 µM, active compounds read high
Would you please tag the item 1.0 when its inhibition is 10% or above, and 0.0 when it is below?

{"columns": ["COMPOUND", "ASSIGNED_CATEGORY"],
 "data": [
  ["COc1cc(C)nc(N2CCCC(C(=O)Nc3cccc(Cl)c3Cl)C2)n1 (stereo not drawn)", 0.0],
  ["CC(=O)c1sc(NC(=O)C2COc3ccccc3O2)nc1C (stereo not drawn)", 1.0],
  ["CC(C)(C)n1nnnc1CN1CCC(NC(=O)NC2CCCCC2)CC1", 1.0],
  ["O=C(CN1CCC(O)(c2ccc3c(c2)OCO3)CC1)OC1CCCCC1", 0.0],
  ["COC(=O)[C@H](C)NC(=O)Nc1cccc(C(F)(F)F)c1", 0.0]
]}

Request: Form field: inhibition at least 10%? Entry: O=S(=O)(c1ccccc1)N(Cc1nc(-c2ccccc2)no1)C1CCCCC1
Response: 1.0

Request: Try this compound next: CN1C(=O)CCC1(O)c1ccccc1 (stereo not drawn)
Response: 1.0

Request: Try this compound next: Cn1c(Cc2ccccc2)nnc1SCC(=O)N1CCOCC1
Response: 1.0
